B1: MNAT1 (parent)
chain: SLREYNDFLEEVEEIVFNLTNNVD

- Variants of: B1
- method-notes: protein stability index of a GFP-peptide fusion (GPS, HEK-293T) (PSI 1-6); higher = more stable;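 note: lentivirally expressed fusions sorted by FACS into six bins by GFP to DsRed ratio, PSI derived from sequencing read proportions per bin multiplied by bin number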
- settings: c terminus: a fixed tail appended
measure-name: protein stability index
Answer as a number with no unit attached.

E14K :: 1.87
F17V :: 2.82
N6Q :: 1.75

INPUT: In one line, give reported protein stability index of the entry D7S .
OUTPUT: 2.05

INPUT: In one line, give reported protein stability index of the entry L2F .
OUTPUT: 1.96

INPUT: In one line, give reported protein stability index of the entry R3A .
OUTPUT: 2.58

INPUT: In one line, give reported protein stability index of the entry E10K .
OUTPUT: 1.91
